Test system: OVCAR-8 ovarian
Assay: NCI tumour cell line growth inhibition, 48 h
Recorded TGI values for a group of compounds are listed next.

[ask] Please give measured TGI of the following entry: CC1(C)N=C(N)N=C(N)N1c1cccc(C#N)c1
[reply] > 100 µM

[ask] Answer with the recorded TGI of CC[C@@]1(O)C(=O)NCc2c1cc1n(c2=O)Cc2cc3ccccc3nc2-1 only.
[reply] > 44.8 µM

[ask] Tell me its TGI given CC(C)[C@@H]1C=C(c2ccccc2)c2ccccc2C1C(C#N)(C#N)C(C)C (stereo partly specified) as the entry.
[reply] > 100 µM

[ask] Provide TGI value for the following compound: CN(C)CCOC(=O)COc1ccc(Cl)cc1
[reply] > 100 µM

[ask] Please list TGI recorded for the compound CCOC(=O)C(C)(C)Oc1ccc2c(=O)cc(-c3ccccc3)oc2c1
[reply] 51.4 µM

[ask] Specify TGI for O=C(N/N=C\c1cccc2ccccc12)Nc1ccc([N+](=O)[O-])cc1 and stop.
[reply] > 53.5 µM
